tested on: Proteus mirabilis 29906 (Pm) lysate; experiment: Inhibition of formation of TMA from choline in Proteus mirabilis lysate (Example 2); assay type: biochemical; details: Pm lysate 1.5 mg/mL protein, 50 μM d9-choline chloride, 37° C. two hours; read-out: TMA Inhibition (IC50, mol/L)
pIC50: −log10 of the molar value.
Classify by measured pIC50: label 1 if it is equal to or exceeds 4, label 0 if it is smaller.

Qu. Is pIC50 for C#CC[S+](C)CCO (centres unmarked) at or above 4?
Ans. label 1

Qu. Determine whether this compound has pIC50 no lower than 4: C[S+](C/C=C/Br)CCO (centres unmarked)
Ans. label 1

Qu. Hi team, for CC[S+](CCO)c1ccccc1 (centres unmarked) [compound 17, Phenyl-(2-hydroxyethyl)-ethyl-sulfonium] , is the recorded pIC50 at or above 4?
Ans. label 0

Qu. In plain terms: is recorded pIC50 at least 4 for C[S+](CCO)c1ccccc1 (centres unmarked) [compound 16, Phenyl-(2-hydroxyethyl)-methyl-sulfonium] ?
Ans. label 0

Qu. Decide: pIC50 of C=CC[S+]([O-])CCO (centres unmarked) [compound 22, Allyl-(2-hydroxyethyl)-oxido-sulfonium] >= 4?
Ans. label 1

====

biological target: recombinant P. mirabilis Cut C/D lysate (Proteus mirabilis); test: biochemical
I'd appreciate it if you could supply pIC50 values for the items below.
// pIC50 here means minus log10 of the molar concentration (mol/L)

Field pIC50 (entry C=CC[S+](C)CCO (stereo not shown) [ID 1, Allyl-(2-hydroxyethyl)-methyl-sulfonium] ) reads 7.01

C=CC[S+](C)C has a reported pIC50 of 6.60

// field: pIC50; key: C[S+](CI)CCO (stereo not shown) ; value = 6.44

So, C#CC[S+](C)C ? Its pIC50 was 7.89

Notebook: C/C=C/C[S+](C)CCO (stereo not shown) , pIC50 read as 5.82

Memo: C=C(C)C[S+](C)CCO (stereo not shown) , reported pIC50: 5.23

Quick note, pIC50 for C#CC[S+](C)CCO (stereo not shown) landed at 7.33

====

tested on: Proteus mirabilis 29906 (Pm) lysate; experiment: Inhibition of formation of TMA from choline in Proteus mirabilis lysate (Example 2); assay type: biochemical; details: Pm lysate 1.5 mg/mL protein, 50 μM d9-choline chloride, 37° C. two hours; read-out: TMA Inhibition (IC50, mol/L)
MEASUREMENT NAME: IC50 (µM)
State the answer as a number, implicitly in µM.

// [O-][S+](CCO)c1ccccc1 (stereo not shown) [compound 18, 2-hydroxyethyl-oxido-phenyl-sulfonium] : IC50 value = 129

For reference, reported IC50 for CCCCC[S+](C)CCO (stereo not shown) [compound 3, Pentyl-(2-hydroxyethyl)-methyl-sulfonium] stands at 398

Reported IC50 ( C#CC[S+](C)C ) = 0.01

What the record says about CCCC[S+](C)CCO (stereo not shown) [compound 14, Butyl-(2-hydroxyethyl)-methyl-sulfonium] : IC50 is 29.5

In plain terms, C[S+](CCO)Cc1ccccc1 (stereo not shown) has a documented IC50 of 44.7

Entry CCCCCC[S+](C)CCO (stereo not shown) [compound 4, Hexyl-(2-hydroxyethyl)-methyl-sulfonium] ; IC50 = 58.9

For reference, reported IC50 for C=CC[S+]1CCOCC1 stands at 15.8

Noted for C#CC[S+]1CCOCC1 : its IC50 reads 55

According to the records, this molecule C#CC[S+](CCO)c1ccccc1 (stereo not shown) displays IC50 of 200

Noted for C=C(C)C[S+](C)CCO (stereo not shown) : its IC50 reads 166

For reference, reported IC50 for C=CC[S+](C)C stands at 0.0661

Data point: C=CC[S+](C)CCO (stereo not shown) [compound 1, Allyl-(2-hydroxyethyl)-methyl-sulfonium] ; IC50 = 0.0457

The recorded IC50 for C/C=C/C[S+](C)CCO (stereo not shown) is 0.0151

====

molecular target: recombinant D. alaskensis Cut C/D lysate (Oleidesulfovibrio alaskensis, UniProt Q30W70); assay: biochemical
Sequence (Q30W70 whole entry): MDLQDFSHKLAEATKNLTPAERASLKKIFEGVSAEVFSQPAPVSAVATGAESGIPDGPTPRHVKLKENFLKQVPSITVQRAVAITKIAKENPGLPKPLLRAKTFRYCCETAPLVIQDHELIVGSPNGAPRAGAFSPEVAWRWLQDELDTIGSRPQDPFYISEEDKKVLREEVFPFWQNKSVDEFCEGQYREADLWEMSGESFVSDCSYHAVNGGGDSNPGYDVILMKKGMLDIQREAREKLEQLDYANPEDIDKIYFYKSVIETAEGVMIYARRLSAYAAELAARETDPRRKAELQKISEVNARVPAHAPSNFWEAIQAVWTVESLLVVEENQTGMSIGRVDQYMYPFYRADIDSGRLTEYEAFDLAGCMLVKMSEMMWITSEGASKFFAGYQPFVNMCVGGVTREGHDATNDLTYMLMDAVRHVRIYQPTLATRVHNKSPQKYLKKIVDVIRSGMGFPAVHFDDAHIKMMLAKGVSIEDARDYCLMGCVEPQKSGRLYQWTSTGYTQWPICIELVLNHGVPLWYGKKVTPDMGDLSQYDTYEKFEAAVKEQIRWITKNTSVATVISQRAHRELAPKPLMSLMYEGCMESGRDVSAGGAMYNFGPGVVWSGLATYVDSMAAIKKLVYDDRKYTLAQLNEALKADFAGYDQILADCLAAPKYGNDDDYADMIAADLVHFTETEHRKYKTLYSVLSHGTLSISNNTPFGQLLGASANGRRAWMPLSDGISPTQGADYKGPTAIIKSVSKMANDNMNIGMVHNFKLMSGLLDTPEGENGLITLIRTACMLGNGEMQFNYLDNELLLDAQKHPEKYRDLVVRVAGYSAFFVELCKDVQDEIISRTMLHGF
Classify: T when IC50 is strictly less than 0.3 µM; F when IC50 is not.

Qu. Would you kindly verify if IC50 of C#CC[S+](C)C is strictly less than 0.3 µM?
Ans. T

Qu. Identify whether the compound C=C(C)C[S+](C)CCO (stereo not shown) records IC50 below 0.3 µM.
Ans. F

Qu. Say whether its IC50 is strictly beneath 0.3 µM. Entry: C#CC[S+](C)CCO (stereo not shown)
Ans. T

Qu. Item C/C=C/C[S+](C)CCO (stereo not shown) : IC50 beneath 0.3 µM, strictly?
Ans. T

Qu. Is it true that IC50 reported for C=CC[S+](C)C is less than 0.3 µM?
Ans. F

Qu. Does this compound meet the criterion IC50 < 0.3 µM? C[S+](CI)CCO (stereo not shown)
Ans. F

====

molecular target: recombinant P. mirabilis Cut C/D lysate (Proteus mirabilis, UniProt B4EYG1); assay: biochemical; details: read-out: IC50 (mol/L) recombinant P. mirabilis Cut C/D lysate
MEASUREMENT NAME: IC50

Documented IC50 of C[S+](CCO)CC(=O)O (stereo not shown) : 0.43 µM

====

system: whole cell wild-type P. mirabilis; assay: Inhibition of conversion of choline to TMA by whole cell wild-type P. mirabilis (Example 5); format: cell-based; conditions: Proteus mirabilis, read-out: EC50 (mol/L) whole cell wild-type P. mirabilis
MEASUREMENT NAME: EC50 (nM)
Write the answer as a number in nM, unit excluded.

EC50 measured on C[S+](CI)CCO (stereo not shown) = 200

Where do these numbers come from? They come from patent US10751301B2.
